The values you see were collected from paper PMC6664433.

- System: L858R/T790M EGFR (Homo sapiens, UniProt P00533, L858R/T790M)
- Sequence (P00533 696-1022 T790M/L858R): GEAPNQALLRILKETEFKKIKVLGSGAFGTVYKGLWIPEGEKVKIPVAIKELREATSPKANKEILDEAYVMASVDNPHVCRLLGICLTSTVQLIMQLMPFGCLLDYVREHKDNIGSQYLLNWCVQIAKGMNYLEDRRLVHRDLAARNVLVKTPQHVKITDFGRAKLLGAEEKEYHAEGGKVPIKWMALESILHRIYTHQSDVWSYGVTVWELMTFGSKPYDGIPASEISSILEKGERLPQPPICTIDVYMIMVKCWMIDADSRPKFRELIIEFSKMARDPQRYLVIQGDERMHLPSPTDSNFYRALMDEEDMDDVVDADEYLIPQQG
- Experimental protocol: HTRF-based EGFR biochemical assay
- Experimental conditions: read-out: IC50 (biochemical potency); enzyme 20pM, 100µM ATP
Attribute measured: pIC50
Answers are plain numbers, as −log10 of the molar value.

Recorded result, O=C(Nc1nccs1)C(c1ccccc1)N1Cc2ccc(-c3ccc4[nH]ccc4c3)cc2C1=O (stereo not shown) , pIC50: 7.82
